Assay: Half life in rat at 2 mg/kg, iv
Assay type: ADME, organism-based
Conditions: in vivo
measurementName: half-life (h)

1 = C[C@H]1CN2CCNCc3ccc(C(=O)NCC(F)F)c1c32
2 = CNC(=O)c1ccc2c3c1CCN3CCNC2
Of the two listed items, 1 and 2 , which carries the larger half-life figure? // respond with label for picked entry
1
(1: 1.6 h, 2: 0.56 h)

---

Molecular target: 5-hydroxytryptamine receptor 2A (Homo sapiens)
Sequence (P28223 whole entry): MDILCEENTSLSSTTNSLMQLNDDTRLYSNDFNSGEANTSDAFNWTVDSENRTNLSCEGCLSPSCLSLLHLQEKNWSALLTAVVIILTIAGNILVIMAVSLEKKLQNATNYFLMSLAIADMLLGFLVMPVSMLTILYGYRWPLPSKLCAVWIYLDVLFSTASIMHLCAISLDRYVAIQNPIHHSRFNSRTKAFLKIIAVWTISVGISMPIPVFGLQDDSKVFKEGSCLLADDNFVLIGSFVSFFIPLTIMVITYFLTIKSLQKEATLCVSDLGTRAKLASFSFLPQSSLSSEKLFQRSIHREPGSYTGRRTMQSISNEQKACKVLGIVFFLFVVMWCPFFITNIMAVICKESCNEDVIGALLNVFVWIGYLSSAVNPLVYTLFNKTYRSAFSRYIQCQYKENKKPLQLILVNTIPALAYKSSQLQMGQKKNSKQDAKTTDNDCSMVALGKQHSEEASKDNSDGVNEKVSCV
measurementName: Ki (µM)

Answered examples (4):
compound	Ki (µM)
CCNC(=O)c1ccc2c3c1C(CC(F)(F)F)CN3CCNC2 (racemic)	1.62
O=C(NCCOc1ccccc1)c1ccc2c3c1CCN3CCNC2	2.63
CCSCCNC(=O)c1ccc2c3c1CCN3CCNC2	17.8
COCCNC(=O)c1ccc2c3c1C(CC(F)(F)F)CN3CCNC2 (racemic)	0.217

a = CCC1CN2CCNCc3ccc(C(=O)NCCF)c1c32 (racemic)
b = O=C(NCC(F)(F)F)c1ccc2c3c1C(CC(F)(F)F)CN3CCNC2 (racemic)
c = CNC(=O)c1ccc2c3c1C(CC(F)F)CN3CCNC2 (racemic)
Ordering criterion: Ki; begin with the maximum. Respond with an ordered listing of the labels, as requested.
b, c, a
